target: SA AgrC-IV (Staphylococcus aureus); assay: β-Lactamase assay, reporter strain RN10829 (P2-agrA:P3-blaZ) with pagrC-IV; assay type: cell-based; conditions: 100 nM cognate AIP; ± SEM; -b = no inhibition recorded at the highest AIP concentration tested; -a = only partial inhibition observed; this study (curves in Fig. S22)
Sequence (Q309Z2 entry or part of it): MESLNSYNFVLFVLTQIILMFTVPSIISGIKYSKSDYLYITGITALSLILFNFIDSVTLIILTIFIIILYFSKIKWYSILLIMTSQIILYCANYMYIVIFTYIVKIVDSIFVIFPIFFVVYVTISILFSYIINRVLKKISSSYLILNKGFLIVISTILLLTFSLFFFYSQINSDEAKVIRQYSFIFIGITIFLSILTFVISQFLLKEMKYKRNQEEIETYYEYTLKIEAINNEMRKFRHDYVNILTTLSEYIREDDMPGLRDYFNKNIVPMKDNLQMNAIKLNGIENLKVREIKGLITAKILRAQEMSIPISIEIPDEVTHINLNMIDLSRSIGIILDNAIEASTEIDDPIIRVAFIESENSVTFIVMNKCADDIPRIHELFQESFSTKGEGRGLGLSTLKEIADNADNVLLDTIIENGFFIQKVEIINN
Positions of bridges follow the written chain, without caps; N, C: chain ends. Residues, ends and D or L forms follow the SMILES beside them.

Compound | Measurement Target | IC50, SA AgrC-IV, b-lactamase assay
CC[C@H](C)[C@H](NC(=O)[C@@H](N)CCCNC(=N)N)C(=O)N1CCC[C@H]1C(=O)N[C@H](C(=O)N[C@H]1COC(=O)[C@H](Cc2ccccc2)NC(=O)[C@H](Cc2ccccc2)NC(=O)CNC(=O)[C@H]([C@@H](C)O)NC1=O)[C@@H](C)O [compound 31, S. intermedius AIP-I] (H-RIPTSTGFF; ester 5-C) | SA AgrC-IV (Staphylococcus aureus) | -b
CC(C)[C@H](NC(=O)[C@H](CO)NC(=O)[C@@H](N)CC(=O)O)C(=O)N[C@H]1CSC(=O)[C@H](Cc2ccccc2)NC(=O)[C@H](Cc2ccc(O)cc2)NC(=O)[C@H](CO)NC(=O)[C@H](C)NC1=O [compound 5, S. epidermidis AIP-I] (H-DSVCASYF; thioester 4-C) | SA AgrC-IV (Staphylococcus aureus) | -b
CC(C)C[C@@H]1NC(=O)[C@H](Cc2ccc(O)cc2)NC(=O)[C@H](CO)NC(=O)[C@H](C)NC(=O)[C@@H](NC(=O)[C@@H]2CCCN2C(=O)[C@H](CC(N)=O)NC(=O)[C@H](Cc2ccc(O)cc2)NC(=O)[C@H](CCCCN)NC(=O)[C@H](C)NC(=O)[C@H](C)NC(=O)[C@@H](N)CC(N)=O)CSC1=O [compound 7, S. epidermidis AIP-III] (H-NAAKYNPCASYL; thioester 8-C) | SA AgrC-IV (Staphylococcus aureus) | -b
